Molecular target: TGR (Schistosoma mansoni, UniProt Q962Y6)
Assay: biochemical
MEASUREMENT KIND: IC50 (nM)
Your answer is read as nM, so omit the unit and give the number.

Below, each entry is followed by its recorded IC50 result.
CC1=CC(=O)NP(=O)(Oc2ccc(Cl)cc2)N1 (centres unmarked) :: 550
CCOC(=O)C(C(=O)OCC)c1cc(Br)c2noc3c2c1C(=O)c1ccccc1-3 :: 9000
O=P(Nc1ccccc1F)(c1ccccc1)c1nc2ccccc2s1 (centres unmarked) :: 12000

Name the recorded IC50 for O=C(c1ccco1)c1no[n+]([O-])c1C(=O)c1ccco1 .
25

Sample CCOc1ccc(OP2(=O)NC(=O)C=C(C)N2)cc1 (centres unmarked) — what was its IC50?
600

###

Biological target: S. mansoni TGR/Prx2 (Schistosoma mansoni, UniProt Q962Y6)
Sequence (Q962Y6 1-598): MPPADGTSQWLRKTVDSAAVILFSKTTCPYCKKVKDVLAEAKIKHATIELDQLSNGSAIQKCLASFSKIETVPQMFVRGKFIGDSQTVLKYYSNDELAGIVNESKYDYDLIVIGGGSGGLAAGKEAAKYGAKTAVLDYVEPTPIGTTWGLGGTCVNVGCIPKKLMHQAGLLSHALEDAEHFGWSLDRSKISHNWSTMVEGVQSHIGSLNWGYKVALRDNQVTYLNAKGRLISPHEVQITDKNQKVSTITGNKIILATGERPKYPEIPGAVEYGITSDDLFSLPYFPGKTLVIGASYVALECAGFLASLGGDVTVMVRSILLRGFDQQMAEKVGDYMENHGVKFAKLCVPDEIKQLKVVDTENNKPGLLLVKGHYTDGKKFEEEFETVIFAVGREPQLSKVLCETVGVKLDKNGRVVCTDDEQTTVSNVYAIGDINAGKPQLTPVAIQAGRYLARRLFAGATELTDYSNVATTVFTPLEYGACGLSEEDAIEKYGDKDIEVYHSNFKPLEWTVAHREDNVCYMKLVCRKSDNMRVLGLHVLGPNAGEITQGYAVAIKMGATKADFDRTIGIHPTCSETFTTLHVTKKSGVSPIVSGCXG
Assay: biochemical
Format: biochemical
In this section, each of the compounds is paired with its reported IC50.
Report as a plain number; the unit µM is understood.

N#Cc1c(-c2ccccc2)no[n+]1[O-] :: 8.7

Please look up its IC50: CCOC(=O)C(C(=O)OCC)c1cc(Br)c2noc3c2c1C(=O)c1ccccc1-3
0.53

###

Molecular target: TGR (Schistosoma mansoni)
Assay: biochemical
Details: DTNB as substrate; 15 nM TGR; read-out: TGR Assay IC50
# maps each entry to its IC50
Supply the numeric figure in nM, leaving out any unit text.

The examples below pair each entry with its known result.
CCCCOc1cc(Br)c2noc3c2c1C(=O)c1ccccc1-3 :: 150
Cc1nn(C)cc1C(=O)c1no[n+]([O-])c1C(=O)c1cn(C)nc1C :: 2000
O=C(c1cccs1)c1no[n+]([O-])c1C(=O)c1cccs1 :: 20

Next:
Fill in the blank: the reported IC50 of COc1ccc(C(=O)c2no[n+]([O-])c2C(=O)c2ccc(OC)cc2)cc1 is ____.
60

###

Molecular target: UniProt Q962Y6
Assay: biochemical
Let's look at some compounds and their measured pIC50.
Formally, pIC50 is defined as -log10 of the concentration c, with c in mol/L.

COC(=O)C(C(=O)OC)c1cc(Br)c2noc3c2c1C(=O)c1ccccc1-3 :: 7.10
N#Cc1c(-c2ccccc2)no[n+]1[O-] :: 5.74

Below: the item to evaluate.
Dear colleague, I am looking for the recorded pIC50 of the following compound: CC1=CC(=O)NP(=O)(Oc2ccccc2)N1 (stereo not drawn)
5.40
